Kindly state Solid (%) 4 week 0° C. for each of the entries shown.
# assay-comment: Stability of example compounds in solid form (HPLC)
# Format: physicochemical
# condition-set: solid, amber vial under Ar, 4 weeks, 0° C.
Numbers only, in %.

Example molecules with recorded Solid (%) 4 week 0° C.:
CC(C)(C)OC(=O)[C@@H](CCCOS(=O)(=O)c1cccc2ccccc12)C[C@H](NC(c1ccccc1)(c1ccccc1)c1ccccc1)C(=O)OC(C)(C)C [Ie] ... 98.6
CC(C)(C)OC(=O)[C@@H](CCCOS(=O)(=O)c1cccc2cccnc12)C[C@H](NC(c1ccccc1)(c1ccccc1)c1ccccc1)C(=O)OC(C)(C)C [If] ... 89.0

Then there is this molecule:
Request: Any idea what Solid (%) 4 week 0° C. was measured for CC(C)(C)OC(=O)[C@@H](CCCOS(=O)(=O)c1ccc(-c2ccc(S(=O)(=O)OCCC[C@@H](C[C@H](NC(c3ccccc3)(c3ccccc3)c3ccccc3)C(=O)OC(C)(C)C)C(=O)OC(C)(C)C)cc2)cc1)C[C@H](NC(c1ccccc1)(c1ccccc1)c1ccccc1)C(=O)OC(C)(C)C [Ig] ?
Response: 97.8
